reversed-phase LC retention time values by entry
PROTOCOL_DESCRIPTION: reversed-phase LC retention time (C18, 15 min MeOH gradient); higher = more hydrophobic / later elution
MEASUREMENT_CONTEXT: ionization mode: ESI+; ion species: [M+H]+
Enter your answer as a number in min; do not include the unit.

Check out these entries, answers already filled in.
>  <COMPOUND>
CCCC1CC(C(=O)NC(C(C)Cl)C2OC(SC)C(O)C(O)C2O)N(C)C1 (centres undefined)

>  <reversed-phase LC retention time / min>
11.5

$$$$
>  <COMPOUND>
OC(Cn1cncn1)(Cn1cncn1)c1ccc(F)cc1F

>  <reversed-phase LC retention time / min>
9.38

$$$$
>  <COMPOUND>
CO/N=C(/C(=O)OC)c1ccccc1CO/N=C(\C)c1cccc(C(F)(F)F)c1

>  <reversed-phase LC retention time / min>
16.3

$$$$
>  <COMPOUND>
CC(C)(C)Nc1nc(N)nc(O)n1 [2-Hydroxydesethylterbuthylazine]

>  <reversed-phase LC retention time / min>
6.43

$$$$
>  <COMPOUND>
c1ccc2c(c1)[nH]c1ncccc12

>  <reversed-phase LC retention time / min>
11.7

$$$$

Please report the measured reversed-phase LC retention time for CCCCCCCCOc1ccc(C(=O)c2ccccc2)c(O)c1 [2-Hydroxy-4-(octyloxyl)benzophenone]
18.9

Please report the measured reversed-phase LC retention time for Fc1ccc(C2(Cn3cncn3)OC2c2ccccc2Cl)cc1 (centres undefined)
14.9

Please report the measured reversed-phase LC retention time for CC12CC3CC(C)(C1)CC(N)(C3)C2 [Memantine]
11.7

Please report the measured reversed-phase LC retention time for `CC(C)(C)c1cc(CCC(=O)NCCCCCCNC(=O)CCc2cc(C(C)(C)C)c(O)c(C(C)(C)C)c2)cc(C(C)(C)C)c1O`
17.8

====

PROTOCOL_DESCRIPTION: collision cross section (TIMS, N2 drift gas) of the primary ion; higher = larger gas-phase ion size
MEASUREMENT_CONTEXT: ionization mode: ESI+; ion species: [M+H]+
collision cross section values by entry
Enter your answer as a number in Å²; do not include the unit.

Please report the measured collision cross section for `COCCN(C(=O)CCl)c1c(C)cccc1C`
152.09

Please report the measured collision cross section for COP(=O)(OC)C(O)C(Cl)(Cl)Cl (centres undefined)
138.18

====

PROTOCOL_DESCRIPTION: collision cross section (TIMS, N2 drift gas) of the primary ion; higher = larger gas-phase ion size
MEASUREMENT_CONTEXT: ionization mode: ESI-; ion species: [M-H]-
collision cross section values by entry
Enter your answer as a number in Å²; do not include the unit.

Check out these entries, answers already filled in.
>  <COMPOUND>
CNS(=O)(=O)c1ccccc1 [N-Methylbenzenesulfonamide]

>  <collision cross section (Å²)>
134.48

$$$$
>  <COMPOUND>
O=C(O)Cc1ccc(S(=O)(=O)O)cc1 [(4-Sulfophenyl)acetic acid]

>  <collision cross section (Å²)>
135.07

$$$$
>  <COMPOUND>
CC(=O)CCc1ccc(O)cc1 [4-(4-Hydroxyphenyl)butan-2-one]

>  <collision cross section (Å²)>
135.07

$$$$
>  <COMPOUND>
Cc1cccc(C)c1N(Cn1cccn1)C(=O)C(=O)O [Metazachlor OA]

>  <collision cross section (Å²)>
162.14

$$$$
>  <COMPOUND>
CN(C)C(=O)Nc1ccc(Cl)c(Cl)c1 [1-(3,4-Dichlorophenyl)-3,3-dimethylurea]

>  <collision cross section (Å²)>
146.03

$$$$
>  <COMPOUND>
O=S(=O)(O)c1ccc2ccc(S(=O)(=O)O)cc2c1 [2,7-Naphthalenedisulfonic acid]

>  <collision cross section (Å²)>
159.15

$$$$

Please report the measured collision cross section for O=C(O)C(F)(F)C(F)(F)C(F)(F)OC(F)(F)F [Perfluoro-4-methoxybutanoic acid]
133.26

Please report the measured collision cross section for CCCCCCCCCCC[C@@H](C[C@@H]1OC(=O)[C@H]1CCCCCC)OC(=O)[C@H](CC(C)C)NC=O [Orlistat]
232.61

====

PROTOCOL_DESCRIPTION: collision cross section (TIMS, N2 drift gas) of the primary ion; higher = larger gas-phase ion size
MEASUREMENT_CONTEXT: ionization mode: ESI+; ion species: [M+H]+
READOUT_NAME: collision cross section
Please report the result as a number followed by the unit.

Check out these entries, answers already filled in.
>  <MOLECULE>
Cc1ccc(-c2cc(C(F)(F)F)nn2-c2ccc(S(N)(=O)=O)cc2)cc1

>  <collision cross section>
189.33 Å²

$$$$
>  <MOLECULE>
CC1(C)CC(N)CC(C)(CN)C1 (stereo not given)

>  <collision cross section>
141.08 Å²

$$$$
>  <MOLECULE>
O=c1[nH]c2ccccc2s1 [2-Hydroxybenzothiazole]

>  <collision cross section>
126.56 Å²

$$$$
>  <MOLECULE>
COc1cc(OC)nc(NC(=O)NS(=O)(=O)c2ncccc2C(=O)N(C)C)n1

>  <collision cross section>
193.46 Å²

$$$$

Please report the measured collision cross section for CC(C)(C)C(O)(CCc1ccc(Cl)cc1)Cn1cncn1 (stereo not given)
168.02 Å²

====

collision cross section values by entry
PROTOCOL_DESCRIPTION: collision cross section (TIMS, N2 drift gas) of the primary ion; higher = larger gas-phase ion size
MEASUREMENT_CONTEXT: ionization mode: ESI+; ion species: [M+H]+
Enter your answer as a number in Å²; do not include the unit.

>  <CPD_SMILES>
Nc1nc(N)nc(NC2CC2)n1

>  <VALUE>
134.76

$$$$
>  <CPD_SMILES>
O=S(=O)(O)CCNC1CCCCC1

>  <VALUE>
148.57

$$$$
>  <CPD_SMILES>
Cc1cc(Cc2ccc(N)c(C)c2)ccc1N

>  <VALUE>
171.67

$$$$

Please report the measured collision cross section for `Nc1nc(=O)n([C@@H]2CS[C@H](CO)O2)cc1F`
146.78

Please report the measured collision cross section for `CCN1CCCC1=O`
120.11

====

PROTOCOL_DESCRIPTION: reversed-phase LC retention time (C18, 15 min MeOH gradient); higher = more hydrophobic / later elution
MEASUREMENT_CONTEXT: ionization mode: ESI-; ion species: [M-H]-
Given measured reversed-phase LC retention time, output 1 if it is greater than or equal to 8 min and -1 if not.

# example entries with known answers
>  <COMPOUND>
CCc1cccc(C)c1NC(=O)CS(=O)(=O)O

>  <LABEL_CLASS>
1

$$$$
>  <COMPOUND>
O=S(=O)(O)c1cccc2c(O)cccc12 [5-Hydroxy-1-naphthalenesulfonic acid]

>  <LABEL_CLASS>
-1

$$$$
>  <COMPOUND>
O=c1c(O[C@@H]2O[C@H](CO)[C@H](O)[C@H](O)[C@H]2O)c(-c2ccc(O)c(O)c2)oc2cc(O)cc(O)c12

>  <LABEL_CLASS>
-1

$$$$

Kindly determine if reversed-phase LC retention time recorded for `COC(=O)c1ccc(CNS(C)(=O)=O)cc1S(=O)(=O)NC(=O)Nc1nc(OC)cc(OC)n1` is above or exactly 8 min.
1

Kindly determine if reversed-phase LC retention time recorded for `O=S(=O)(O)CCNC1CCCCC1` is above or exactly 8 min.
-1

Kindly determine if reversed-phase LC retention time recorded for `O=S(=O)(O)C(F)(F)C(F)(F)C(F)(F)C(F)(F)C(F)(F)C(F)(F)F` is above or exactly 8 min.
1

Kindly determine if reversed-phase LC retention time recorded for `C#C[C@]1(O)CC[C@H]2[C@@H]3CCc4cc(O)ccc4[C@H]3CC[C@@]21C` is above or exactly 8 min.
1

====

PROTOCOL_DESCRIPTION: reversed-phase LC retention time (C18, 15 min MeOH gradient); higher = more hydrophobic / later elution
MEASUREMENT_CONTEXT: ionization mode: ESI-; ion species: [M-H]-
Given measured reversed-phase LC retention time, output Yes if it is greater than or equal to 9 min and No if not.

>  <MOLECULE>
COCC(C)N(C(=O)CS(=O)(=O)O)c1c(C)csc1C (configuration not stated)

>  <LABEL_CLASS>
Yes

$$$$
>  <MOLECULE>
CCC(=O)[C@@]1(C)[C@H](C)C[C@H]2[C@@H]3CCC4=CC(=O)C=C[C@]4(C)[C@H]3[C@@H](O)C[C@@]21C [Rimexolone]

>  <LABEL_CLASS>
Yes

$$$$
>  <MOLECULE>
OCC1OC(OC2(CCl)OC(CCl)C(O)C2O)C(O)C(O)C1Cl (configuration not stated)

>  <LABEL_CLASS>
No

$$$$
>  <MOLECULE>
O=c1c(-c2ccc(O)cc2)coc2cc(O)cc(O)c12

>  <LABEL_CLASS>
Yes

$$$$
>  <MOLECULE>
Cc1nccc2c1[nH]c1ccccc12

>  <LABEL_CLASS>
Yes

$$$$
>  <MOLECULE>
O=Cc1c[nH]c2ccccc12

>  <LABEL_CLASS>
Yes

$$$$
>  <MOLECULE>
C[C@H](CCC(=O)O)[C@H]1CC[C@H]2[C@@H]3[C@H](O)C[C@@H]4C[C@H](O)CC[C@]4(C)[C@H]3CC[C@]12C

>  <LABEL_CLASS>
Yes

$$$$
>  <MOLECULE>
O=C1CN(/N=C/c2ccc([N+](=O)[O-])o2)C(=O)N1

>  <LABEL_CLASS>
No

$$$$
>  <MOLECULE>
c1ccc2c(c1)[nH]c1ncccc12

>  <LABEL_CLASS>
Yes

$$$$
>  <MOLECULE>
CC(Oc1ccc(Oc2cnc3cc(Cl)ccc3n2)cc1)C(=O)O (configuration not stated)

>  <LABEL_CLASS>
Yes

$$$$

Kindly determine if reversed-phase LC retention time recorded for CCC(=O)O[C@]1(C(=O)CCl)[C@@H](C)C[C@H]2[C@@H]3CCC4=CC(=O)C=C[C@]4(C)[C@@]3(F)[C@@H](O)C[C@@]21C [Clobetasol propionate] is above or exactly 9 min.
Yes

Kindly determine if reversed-phase LC retention time recorded for `O=C(O)C(F)(F)C(F)(F)C(F)(F)C(F)(F)F` is above or exactly 9 min.
Yes

Kindly determine if reversed-phase LC retention time recorded for `COc1cc(OC)nc(NC(=O)NS(=O)(=O)N(C)S(C)(=O)=O)n1` is above or exactly 9 min.
No

Kindly determine if reversed-phase LC retention time recorded for CCc1cccc(C)c1N(C(=O)C(=O)O)C(C)C(=O)O (configuration not stated) is above or exactly 9 min.
No

Kindly determine if reversed-phase LC retention time recorded for O=C(NC(CO)C(O)c1ccc([N+](=O)[O-])cc1)C(Cl)Cl (configuration not stated) is above or exactly 9 min.
Yes

Kindly determine if reversed-phase LC retention time recorded for `O=S(=O)(O)c1ccc2ccccc2c1` is above or exactly 9 min.
No
